Numbers sourced from the supplement of paper PMC7021759.

# System: SK-N-MM (SKNMM-MYCN, doxycycline-inducible MYCN)
# measurementNotes: area under dose-response curve (CellTiter-Glo viability normalised to plate controls) (AUC (arbitrary units)); higher = more loss of viability; extreme values may be limits of the assay
# conditionSummary: MYCN induction (doxycycline): +doxycycline (MYCN induced); time after drugging: 3 days

molSmiles	area under dose-response curve
CN(C)C/C=C/C(=O)Nc1ccc(C(=O)Nc2cccc(Nc3ncc(Cl)c(-c4c[nH]c5ccccc45)n3)c2)cc1	102
CN(C)c1ccc2nc3ccc(=[N+](C)C)cc-3sc2c1	48.8
Cc1ccc(Nc2nccc(N(C)c3ccc4c(C)n(C)nc4c3)n2)cc1S(N)(=O)=O	21.1
CCN(CC)Cc1ccc2cc(COC(=O)Nc3ccc(C(=O)NO)cc3)ccc2c1	132
Cc1sc2c(c1C)C(c1ccc(Cl)cc1)=N[C@@H](CC(N)=O)c1nnc(C)n1-2	2.86

---

# System: SK-N-MM (SKNMM-MYCN, doxycycline-inducible MYCN)
# measurementNotes: area under dose-response curve (CellTiter-Glo viability normalised to plate controls) (AUC (arbitrary units)); higher = more loss of viability; extreme values may be limits of the assay
# conditionSummary: MYCN induction (doxycycline): +doxycycline (MYCN induced); time after drugging: 3 days
A collection of compounds and their measured area under dose-response curve

compound	measuredOn	area under dose-response curve
Clc1ccc(C(c2ccccc2Cl)C(Cl)Cl)cc1 (centres undefined)	SK-N-MM (SKNMM-MYCN, doxycycline-inducible MYCN)	0
CC(=O)Nc1cccc(-n2c(=O)n(C3CC3)c(=O)c3c(Nc4ccc(I)cc4F)n(C)c(=O)c(C)c32)c1	SK-N-MM (SKNMM-MYCN, doxycycline-inducible MYCN)	54.2
COc1cc(Nc2c(C#N)cnc3cc(OCCCN4CCN(C)CC4)c(OC)cc23)c(Cl)cc1Cl	SK-N-MM (SKNMM-MYCN, doxycycline-inducible MYCN)	0.583
C/C(=C\c1csc(C)n1)[C@@H]1C[C@@H]2O[C@]2(C)CCC[C@H](C)[C@H](O)[C@@H](C)C(=O)C(C)(C)[C@@H](O)CC(=O)N1 [IXABEPILONE]	SK-N-MM (SKNMM-MYCN, doxycycline-inducible MYCN)	121

---

A collection of compounds and their measured area under dose-response curve
# System: SK-N-MM (SKNMM-MYCN, doxycycline-inducible MYCN)
# measurementNotes: area under dose-response curve (CellTiter-Glo viability normalised to plate controls) (AUC (arbitrary units)); higher = more loss of viability; extreme values may be limits of the assay
# conditionSummary: MYCN induction (doxycycline): +doxycycline (MYCN induced); time after drugging: 3 days

compound	area under dose-response curve
O=c1[nH]cc(F)c(=O)[nH]1	12.1
CC(C)(C#N)c1cc(Cn2cncn2)cc(C(C)(C)C#N)c1	4.86
OC[C@H]1O[C@@H](n2cnc3c2N=CNC[C@H]3O)C[C@@H]1O	0
O=C1NC(=O)[C@@H](c2cn3c4c(cccc24)CCC3)[C@@H]1c1c[nH]c2ccccc12 [TIVANTINIB]	102
COc1cc(Nc2ncc3c(n2)-c2ccc(Cl)cc2C(c2c(F)cccc2OC)=NC3)ccc1C(=O)O	51.1
CCc1nc(N)nc(N)c1-c1ccc(Cl)cc1	13.5
COC(=O)N[C@@H](C)CNc1nccc(-c2cn(C(C)C)nc2-c2cc(Cl)cc(NS(C)(=O)=O)c2F)n1	12.9
CC1CS(=O)(=O)CCN1/N=C/c1ccc([N+](=O)[O-])o1 (centres undefined)	3.58
CN[C@H]1CN(c2ccc3c(=O)c(C(=O)O)cn(-c4nccs4)c3n2)C[C@@H]1OC	39.3
